System: Clostridium difficile (Isolate ID ATCC 9689)
ASSAY: Bacterial Assay: Determination of Antibacterial Activity (MIC, broth microdilution or agar dilution)
Assay type: cell-based
APPLIED_CONDITIONS: Clostridioides difficile, ATCC9689, 48 h, read-out: C. difficile MIC Activity Range
# Lookup of reported MIC keyed by entry

>  <COMPOUND>
NC(=O)c1c(F)ccc(OCc2nc(-c3ccc(Cl)cc3)cs2)c1F

>  <TARGET_OR_SYSTEM>
Clostridium difficile (Isolate ID ATCC 9689)

>  <MIC>
< 1.01 µg/mL

$$$$
>  <COMPOUND>
CN(Cc1ccncn1)C(=O)OCC(Oc1ccc(F)c(C(N)=O)c1F)c1nc(-c2ccc(C(F)(F)F)cc2)c(Br)o1 (centres unmarked)

>  <TARGET_OR_SYSTEM>
Clostridium difficile (Isolate ID ATCC 9689)

>  <MIC>
1 to 4 µg/mL

$$$$
>  <COMPOUND>
NC(=O)c1c(F)ccc(OCc2nc(CCc3cccc(Cl)c3)cs2)c1F

>  <TARGET_OR_SYSTEM>
Clostridium difficile (Isolate ID ATCC 9689)

>  <MIC>
< 1.01 µg/mL

$$$$
>  <COMPOUND>
NC(=O)c1c(F)ccc(OCCCc2nc(-c3ccc(OC(F)F)cc3)cs2)c1F

>  <TARGET_OR_SYSTEM>
Clostridium difficile (Isolate ID ATCC 9689)

>  <MIC>
1 to 4 µg/mL

$$$$
>  <COMPOUND>
NC(=O)c1c(F)ccc(OCCCCOc2cccc(Cl)c2)c1F

>  <TARGET_OR_SYSTEM>
Clostridium difficile (Isolate ID ATCC 9689)

>  <MIC>
1 to 4 µg/mL

$$$$
>  <COMPOUND>
CCCCCCOCCOc1ccc(F)c(C(N)=O)c1F

>  <TARGET_OR_SYSTEM>
Clostridium difficile (Isolate ID ATCC 9689)

>  <MIC>
1 to 4 µg/mL

$$$$
>  <COMPOUND>
NC(=O)c1c(F)ccc(OC(COC(=O)NCc2cccnc2)c2nc(-c3ccc(C(F)(F)F)cc3)c(Br)o2)c1F (centres unmarked)

>  <TARGET_OR_SYSTEM>
Clostridium difficile (Isolate ID ATCC 9689)

>  <MIC>
1 to 4 µg/mL

$$$$
>  <COMPOUND>
Cc1ccc(CNC(=O)OCC(Oc2ccc(F)c(C(N)=O)c2F)c2nc(-c3ccc(C(F)(F)F)cc3)c(Br)o2)n1C (centres unmarked)

>  <TARGET_OR_SYSTEM>
Clostridium difficile (Isolate ID ATCC 9689)

>  <MIC>
1 to 4 µg/mL

$$$$
